TEST SYSTEM: CYP3A4 (Homo sapiens)
Construct: utilizes human liver microsomes together with isoform-specific clinical drug probes; from tissue; host or cells: human liver microsomes
Sequence (P08684 whole entry, canonical isoform): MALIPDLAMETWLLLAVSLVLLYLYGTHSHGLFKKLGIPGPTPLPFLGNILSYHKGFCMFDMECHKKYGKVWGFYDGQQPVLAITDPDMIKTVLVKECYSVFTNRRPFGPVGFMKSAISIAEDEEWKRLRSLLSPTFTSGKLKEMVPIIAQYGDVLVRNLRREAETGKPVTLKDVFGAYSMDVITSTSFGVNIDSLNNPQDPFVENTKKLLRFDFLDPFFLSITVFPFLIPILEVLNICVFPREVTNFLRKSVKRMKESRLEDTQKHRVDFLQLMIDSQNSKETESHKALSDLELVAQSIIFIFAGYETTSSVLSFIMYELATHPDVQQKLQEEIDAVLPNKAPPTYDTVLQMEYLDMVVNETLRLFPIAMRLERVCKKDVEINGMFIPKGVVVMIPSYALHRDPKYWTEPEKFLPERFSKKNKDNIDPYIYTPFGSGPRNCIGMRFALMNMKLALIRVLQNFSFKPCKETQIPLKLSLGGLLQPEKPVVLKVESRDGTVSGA
EXPERIMENT NOTES: High density DDI 3 μM cocktail screen in human liver microsomes, midazolam probe
Assay type: in vitro ADME
MEASUREMENT CONTEXT: human, liver microsomes, probe midazolam, read-out: % inhibition 3A4 @ 3 μM
Would you please tag the item Y when its inhibition at 3 µM is 60% or above, and N when it is below?

Threshold query (inhibition at 3 µM >= 60%) on CS(=O)(=O)N1CCN(C(=O)[C@@H]2CN(c3ccc(C#N)nn3)C[C@H]2c2ccc(Cl)cn2)CCC[C@H]1c1ccc(Cl)cc1
Y

Please indicate if the recorded inhibition at 3 µM for CC(C)(C)N1C[C@@H](C(=O)N2CCC[C@@H](c3ccc(Cl)cc3)N(C(=O)C3CCC3)CC2)[C@H](c2ccc(F)cc2F)C1 meets or exceeds 60%.
N

For this molecule, is measured inhibition at 3 µM 60% or higher? CS(=O)(=O)N1CCN(C(=O)[C@@H]2CN(c3ccc(C#N)cn3)C[C@H]2c2ccc(F)cc2F)CCCC1c1ccccc1 (single isomer, unassigned)
Y

Check the entry COC(=O)N1CCN(C(=O)[C@@H]2CN(C(C)(C)C)C[C@H]2c2ccc(OC)cc2F)CCCC1c1ccc(Cl)cc1 (stereo partly drawn) : does inhibition at 3 µM equal or exceed 60%?
N

Is the recorded value of inhibition at 3 µM equal to or greater than 60% for this molecule? COC(=O)N1CCN(C(=O)[C@@H]2CN(C3CCOCC3)C[C@H]2c2ccc(F)cc2F)CCCC1c1ccccc1 (mixture of isomers)
N

# check: inhibition at 3 µM of CC(=O)N1CCN(C(=O)C2CN(c3ccc(C#N)nn3)C[C@H]2c2ccc(F)cc2F)CCC[C@H]1c1ccc(Cl)cc1 (stereo partly drawn) is greater than or equal to 60%
N

Can CC(C)C(=O)N1CCN(C(=O)[C@@H]2CN(C(C)(C)C)C[C@H]2c2ccc(F)cc2F)CCC[C@H]1c1ccc(Cl)cc1 be said to have inhibition at 3 µM at or above 60%?
N

Could you tell me if the measured inhibition at 3 µM of CC(C)(C)C(=O)N1CCN(C(=O)[C@@H]2CN(C(C)(C)C)C[C@H]2c2ccc(F)cc2F)CCC[C@H]1c1ccc(Cl)cc1 reaches 60% or more?
Y

Confirm if inhibition at 3 µM reported for the molecule COc1ccc([C@@H]2CN(c3ccc(=O)[nH]n3)C[C@H]2C(=O)N2CCC[C@@H](c3ccc(Cl)cc3)N(C(C)=O)CC2)c(F)c1 is 60% or above.
N

Could you tell me if the measured inhibition at 3 µM of COC(=O)N1CCN(C(=O)[C@@H]2CN(c3ccc(=O)[nH]n3)C[C@H]2c2ccc(OC)cc2F)CCCC1c1ccc(Cl)cc1 (mixture of isomers) reaches 60% or more?
Y

# check: inhibition at 3 µM of CCN(CC)C(=O)N1CCN(C(=O)[C@@H]2CN(C(C)(C)C)C[C@H]2c2ccc(F)cc2F)CCC[C@H]1c1ccc(Cl)cc1 is greater than or equal to 60%
N

Kindly determine if inhibition at 3 µM recorded for CC(C)C(=O)N1CCN(C(=O)[C@@H]2CN(C(C)(C)C)C[C@H]2c2ccc(Cl)cn2)CCC[C@H]1c1ccc(Cl)cc1 is above or exactly 60%.
N

Given COC(=O)N1CCN(C(=O)[C@@H]2CN(c3ccc(C#N)nn3)C[C@H]2c2ccc(F)cc2F)CCCC1c1ccc(Cl)cc1 (mixture of isomers) , state whether its inhibition at 3 µM is at least 60%.
Y

Would you say COC(=O)N1CCN(C(=O)[C@@H]2CN(C(=O)OC(C)(C)C)C[C@H]2c2ccc(F)cc2F)CCCC1c1ccccc1 (mixture of isomers) shows inhibition at 3 µM at minimum 60%?
Y

Does CCCC(=O)N1CCN(C(=O)[C@@H]2CN(c3cccnn3)C[C@H]2c2ccc(F)cc2F)CCCC1c1ccccc1 (mixture of isomers) have a reported inhibition at 3 µM of at least 60%?
Y

Test whether the molecule CC(C)(C)N1C[C@@H](C(=O)N2CCC(c3ccc(Cl)cc3)N(S(C)(=O)=O)CC2)[C@H](c2ccc(F)cc2F)C1 (mixture of isomers) records inhibition at 3 µM of 60% or higher.
N

Exam item: decide whether the reported inhibition at 3 µM for COc1ccc([C@@H]2CN(c3ccc(=O)n(C)n3)C[C@H]2C(=O)N2CCC[C@@H](c3ccc(Cl)cc3)N(C(=O)C(C)C)CC2)c(F)c1 is at least 60%.
N

Is the recorded value of inhibition at 3 µM equal to or greater than 60% for this molecule? COC(=O)N1CCN(C(=O)[C@@H]2CN(c3ccc(C#N)nn3)CC2c2ccc(OC)cc2F)CCCC1c1ccc(Cl)cc1 (stereo in doubt)
Y

Answer whether inhibition at 3 µM of CCC(=O)N1CCN(C(=O)[C@@H]2CN(c3ccc(=O)n(C)n3)C[C@H]2c2ccc(OC)cc2F)CCC[C@H]1c1ccc(Cl)cc1 is greater than or equal to 60%.
N

Has CS(=O)(=O)N1CCN(C(=O)[C@@H]2CN(c3ccc(C#N)nn3)C[C@H]2c2ccc(F)cc2F)CCCC1c1ccc(Cl)cc1 (mixture of isomers) a recorded inhibition at 3 µM greater than or equal to 60%?
N

Please tell me: is the molecule COc1ccc([C@@H]2CN(c3cccnn3)C[C@H]2C(=O)N2CCC(c3ccc(Cl)cc3)N(C(C)=O)CC2)c(F)c1 (mixture of isomers) at or over 60% in terms of inhibition at 3 µM?
N

For this molecule, is measured inhibition at 3 µM 60% or higher? COC(=O)N1CCN(C(=O)[C@@H]2CN(c3ccc(C#N)nn3)C[C@H]2c2ccc(F)cc2F)CCCC1c1cccc(OC)c1 (mixture of isomers)
Y

Can COC(=O)N1CCN(C(=O)[C@@H]2CN(c3ccc(=O)n(C)n3)C[C@H]2c2ccc(OC)cc2F)CCC[C@@H]1c1ccc(Cl)cc1 be said to have inhibition at 3 µM at or above 60%?
N

# check: inhibition at 3 µM of CC(C)CC(=O)N1CCN(C(=O)[C@@H]2CN(C(C)(C)C)C[C@H]2c2ccc(F)cc2F)CCC[C@H]1c1ccc(Cl)cc1 is greater than or equal to 60%
N
